System: DMS 114 small cell lung
test.method.notes: NCI tumour cell line growth inhibition, 48 h

>  <molecule>
CCCCCCCCCCCCOC(=N)N1CCOCC1

>  <modifier>
=

>  <TGI [µM]>
19.7

$$$$
>  <molecule>
CC1(C)OC(COP2OCCO2)[C@H](COP2OCCO2)O1 (stereo partly drawn)

>  <modifier>
>

>  <TGI [µM]>
100

$$$$
>  <molecule>
Cc1nc2ccccc2c(=O)n1/N=C(\N=Nc1ccc(Cl)cc1)c1ccc(N(C)C)cc1

>  <modifier>
>

>  <TGI [µM]>
100

$$$$
>  <molecule>
COc1cc(Br)c(C2OCCCO2)cc1OCc1ccccc1

>  <modifier>
>

>  <TGI [µM]>
100

$$$$
>  <molecule>
CSC(SC)=C1Sc2cccc(Cl)c2S1

>  <modifier>
=

>  <TGI [µM]>
79.8

$$$$
>  <molecule>
C/C(=N\NC(N)=S)c1ccc(Oc2ccccc2)cc1

>  <modifier>
=

>  <TGI [µM]>
17.9

$$$$
>  <molecule>
C#CC[C@]12CC(=O)CC[C@H]1CC1(C2)OCCO1

>  <modifier>
>

>  <TGI [µM]>
100

$$$$
>  <molecule>
CCC[CH2][Sn]1([CH2]CCC)[O]C(=O)c2cccnc2[S]1

>  <modifier>
=

>  <TGI [µM]>
3.83

$$$$

----------
System: ACHN renal
test.method.notes: NCI tumour cell line growth inhibition, 48 h

>  <molecule>
Cc1ccccc1C1N=C2Oc3ccccc3C=C2C(=O)N1 (stereo unspecified)

>  <TGI>
> 100 µM

$$$$
>  <molecule>
COC(=O)[C@@H](C)C[C@H](Cc1ccccc1)NC(=O)c1nc([C@@H](C[C@H](C(C)C)N(C)C(=O)[C@@H](NC(=O)[C@H]2CC(=O)CCN2C)C(C)C)OC(C)=O)sc1C(C)C

>  <TGI>
> 16.7 µM

$$$$
>  <molecule>
CSc1cnc2ccccc2c1Sc1cn(C)c2ccccc2c1=O

>  <TGI>
> 100 µM

$$$$
>  <molecule>
N#CC1(C2CC(=O)N(c3ccccc3)C2=O)CCCCC1=O (stereo unspecified)

>  <TGI>
> 100 µM

$$$$
>  <molecule>
CCc1c(N=[N+]=[N-])c2ccccc2oc1=O

>  <TGI>
> 100 µM

$$$$
>  <molecule>
COc1cc(/C=C(\C#N)C(=O)c2ccccc2)cc(OC)c1OC

>  <TGI>
> 100 µM

$$$$

----------
System: NCI-H460 lung
test.method.notes: NCI tumour cell line growth inhibition, 48 h

>  <molecule>
CN1CN(c2ccccc2)C2(CCN(CCCN(C)c3ccc(F)cc3)CC2)C1=O

>  <study.system>
NCI-H460 lung

>  <TGI>
32.9 µM

$$$$
>  <molecule>
COc1ccc(Cc2nc3cc(C(F)(F)F)ccc3n2C[C@@H]2CCCN3CCCCC23)cc1 (stereo partly drawn)

>  <study.system>
NCI-H460 lung

>  <TGI>
31.1 µM

$$$$
>  <molecule>
Cc1cccc2c(=O)c3cccc(CC(=O)O)c3oc12

>  <study.system>
NCI-H460 lung

>  <TGI>
> 100 µM

$$$$
>  <molecule>
O=C(c1ccccc1)N1N=C(C(F)(F)F)CC1(O)C(F)(F)F (stereo not drawn)

>  <study.system>
NCI-H460 lung

>  <TGI>
> 100 µM

$$$$
>  <molecule>
CC[C@H]1CNC(=O)CC1CC(=O)OC (stereo partly drawn)

>  <study.system>
NCI-H460 lung

>  <TGI>
> 100 µM

$$$$
>  <molecule>
Cc1ccc(Nc2nc3ccccc3nc2NS(=O)(=O)c2ccc(N)cc2)cc1

>  <study.system>
NCI-H460 lung

>  <TGI>
> 100 µM

$$$$
>  <molecule>
N#CC1(C2CC(=O)N(c3ccccc3)C2=O)CCCCC1=O (stereo not drawn)

>  <study.system>
NCI-H460 lung

>  <TGI>
> 100 µM

$$$$
>  <molecule>
Cn1c2ccccc2n2c3ccccc3c3nnc(N)c-3c12

>  <study.system>
NCI-H460 lung

>  <TGI>
> 100 µM

$$$$
>  <molecule>
CC[C@@]12CC(C(=O)OC)=C3Nc4ccccc4[C@@]34CCN(C[C@H]3O[C@H]31)[C@@H]24

>  <study.system>
NCI-H460 lung

>  <TGI>
> 100 µM

$$$$
>  <molecule>
O=C1OCC2=C1C(c1ccc(Cl)cc1)c1cc3c(cc1O2)OCO3 (stereo not drawn)

>  <study.system>
NCI-H460 lung

>  <TGI>
> 100 µM

$$$$
>  <molecule>
CSc1ccc(/C=C2\N=C(c3ccccc3)N(NC(=O)c3c(Cl)c(Cl)c(Cl)c(Cl)c3-c3nc4ccccc4[nH]3)C2=O)cc1

>  <study.system>
NCI-H460 lung

>  <TGI>
28 µM

$$$$
>  <molecule>
Cc1c(Cl)ccc2[s+]snc12

>  <study.system>
NCI-H460 lung

>  <TGI>
> 100 µM

$$$$
>  <molecule>
CCOC(=O)c1c2ccccc2n2c(=O)n(-c3ccccc3)nnc12

>  <study.system>
NCI-H460 lung

>  <TGI>
> 100 µM

$$$$
>  <molecule>
O=c1c2cc(F)ccc2sc2c(NCCCNCCO)nc3ccc(F)cc3c12

>  <study.system>
NCI-H460 lung

>  <TGI>
3.24 µM

$$$$
>  <molecule>
COc1nc2c(c(=O)[nH]1)N=C(c1ccc([N+](=O)[O-])cc1)CC(c1ccccc1)N2 (stereo not drawn)

>  <study.system>
NCI-H460 lung

>  <TGI>
> 100 µM

$$$$
>  <molecule>
O=C(NC(=Nc1ccccc1)SCCSC(=Nc1ccccc1)NC(=O)c1ccccc1)c1ccccc1

>  <study.system>
NCI-H460 lung

>  <TGI>
> 100 µM

$$$$
>  <molecule>
FC(F)(F)c1ccc(-c2cnc(-c3nn[nH]n3)nc2NC2CCCCCC2)cc1

>  <study.system>
NCI-H460 lung

>  <TGI>
> 10 µM

$$$$
>  <molecule>
CC(C(=O)NCNC(=O)c1ccccc1)C(=O)NCc1ccccc1 (stereo not drawn)

>  <study.system>
NCI-H460 lung

>  <TGI>
> 100 µM

$$$$
